B1: TRIM63 (parent)
chain: FRCPTCRHEVIMDRHGVYGLQRNL

Variants of: B1
ASSAY_INFO: protein stability index of a GFP-peptide fusion (GPS, HEK-293T) (PSI 1-6); higher = more stable;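 further: lentivirally expressed fusions sorted by FACS into six bins by GFP to DsRed ratio, PSI derived from sequencing read proportions per bin multiplied by bin number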
EXPERIMENTAL_CONTEXT: c terminus: a fixed tail appended
MEASURED_ENDPOINT: protein stability index
Give bare numbers.

>  <MUTATIONS>
L24H

>  <protein stability index>
2.88

$$$$
>  <MUTATIONS>
T5C

>  <protein stability index>
2.14

$$$$

Please give protein stability index for each item listed below.
1. R14N
2. C3K
3. C3E
4. L24C
5. E9Y
6. I11W

**A:**
1: 2.16; 2: 1.74; 3: 2.04; 4: 2.75; 5: 1.86; 6: 1.69

Please give protein stability index for each item listed below.
1. G16M
2. H15M
3. Q21L
4. G16C
5. G19C

**A:**
1: 2.15; 2: 2.71; 3: 3.19; 4: 2.42; 5: 2.57

Please give protein stability index for each item listed below.
1. R2L
2. D13A
3. V10Y
4. D13N

**A:**
[1.98, 2.42, 2.05, 1.04]

Please give protein stability index for each item listed below.
1. T5Y
2. G19F
3. D13G
4. R7S
5. D13R

**A:**
[2.65, 2.28, 3.87, 2.24, 3]

Provenance of the data: the supplement of paper PMC10567573
